Entries below carry reported pKi on Adenosine receptor A2b (Homo sapiens, UniProt P29275).
Sequence (P29275 whole entry): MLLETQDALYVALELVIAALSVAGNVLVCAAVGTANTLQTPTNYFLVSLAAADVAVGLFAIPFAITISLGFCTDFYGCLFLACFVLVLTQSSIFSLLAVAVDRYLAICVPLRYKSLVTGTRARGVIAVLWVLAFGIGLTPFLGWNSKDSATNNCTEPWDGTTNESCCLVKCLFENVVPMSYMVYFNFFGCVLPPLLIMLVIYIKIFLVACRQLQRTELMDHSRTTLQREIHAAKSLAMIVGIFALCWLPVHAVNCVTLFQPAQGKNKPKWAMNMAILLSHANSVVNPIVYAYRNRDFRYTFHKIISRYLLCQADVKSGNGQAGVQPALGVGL
By convention, pKi is the negative base-10 log of a molar concentration.

Example entries begin here.
- Cc1ncnc2ccc(-c3sc(NC(=O)N4CCC(N(C)C)CC4)nc3-c3cccc(C#N)c3)cc12 [US20250243194, Example 7.6]: 8.60
- Cc1ccnc2ccc(-c3sc(NC(=O)N4CC5(COC5)C4)nc3-c3cccc(C#N)c3)cc12 [US20250243194, Example 11]: 9.30

Now examine the next entry.
Kindly state the measured pKi obtained for Cc1ncnc2ccc(-c3sc(NC(=O)N4C[C@@H]5OCCN(C)[C@@H]5C4)nc3-c3cccc(C#N)c3)cc12 [US20250243194, Example 7.20] with Adenosine receptor A2b (Homo sapiens, UniProt P29275).
8.85
